Measured IC50 accompanies every entry in the list below.
system: PC-3; assay: Antiproliferative activity against docetaxel-sensitive human PC3 cells after 3 days by WST-1 assay; format: functional, cell-based; conditions: PC-3, 72 h

[
  {
    "compound": "C/C1=C/C=C/C(=O)O[C@@H](CO)C/C(C)=C/COCC/C=C/C(=O)C1",
    "experimentalTarget": "PC-3",
    "prefixOperator": ">",
    "IC50, µM": 30
  },
  {
    "compound": "COc1ccc(COC[C@@H]2C/C(C)=C/COCC/C=C/C(=O)C/C(C)=C\\C=C\\C(=O)O2)cc1",
    "experimentalTarget": "PC-3",
    "prefixOperator": "=",
    "IC50, µM": 7.66
  },
  {
    "compound": "C/C1=C/C=C/C(=O)O[C@H](C=O)C/C(C)=C/COCC/C=C/C(=O)C1",
    "experimentalTarget": "PC-3",
    "prefixOperator": "=",
    "IC50, µM": 11.9
  },
  {
    "compound": "C/C1=C/C=C/C(=O)O[C@H](CO)C/C(C)=C/COCC/C=C/C(=O)C1",
    "experimentalTarget": "PC-3",
    "prefixOperator": "=",
    "IC50, µM": 16.1
  },
  {
    "compound": "C/C1=C/C=C/C(=O)O[C@@H](C=O)C/C(C)=C/COCC/C=C/C(=O)C1",
    "experimentalTarget": "PC-3",
    "prefixOperator": "=",
    "IC50, µM": 5.27
  },
  {
    "compound": "COc1ccc(COC[C@H]2C/C(C)=C/COCC/C=C/C(=O)C/C(C)=C\\C=C\\C(=O)O2)cc1",
    "experimentalTarget": "PC-3",
    "prefixOperator": "=",
    "IC50, µM": 6.31
  },
  {
    "compound": "CC(=O)O[C@@]12CO[C@@H]1C[C@H](O)[C@@]1(C)C(=O)[C@H](O)C3=C(C)[C@@H](OC(=O)[C@H](O)[C@@H](NC(=O)OC(C)(C)C)c4ccccc4)C[C@@](O)([C@@H](OC(=O)c4ccccc4)[C@H]21)C3(C)C [DOCETAXEL ANHYDROUS]",
    "experimentalTarget": "PC-3",
    "prefixOperator": "=",
    "IC50, µM": 0.0019
  }
]

---

tested on: DU-145; test: Antiproliferative activity against docetaxel-sensitive human DU145 cells after 3 days by WST-1 assay; type: functional, cell-based; details: DU-145, 72 h
pIC50: −log10 of the molar value.
The threshold is inclusive: pIC50 of exactly 5 counts as MET; values below receive NOT MET.

[
  {
    "compound": "C/C1=C/C=C/C(=O)O[C@@H](CO)C/C(C)=C/COCC/C=C/C(=O)C1",
    "experimentalTarget": "DU-145",
    "group": "NOT MET"
  },
  {
    "compound": "C/C1=C/C=C/C(=O)O[C@@H](C=O)C/C(C)=C/COCC/C=C/C(=O)C1",
    "experimentalTarget": "DU-145",
    "group": "MET"
  },
  {
    "compound": "C/C1=C/C=C/C(=O)O[C@H](CO)C/C(C)=C/COCC/C=C/C(=O)C1",
    "experimentalTarget": "DU-145",
    "group": "NOT MET"
  },
  {
    "compound": "CC(=O)O[C@@]12CO[C@@H]1C[C@H](O)[C@@]1(C)C(=O)[C@H](O)C3=C(C)[C@@H](OC(=O)[C@H](O)[C@@H](NC(=O)OC(C)(C)C)c4ccccc4)C[C@@](O)([C@@H](OC(=O)c4ccccc4)[C@H]21)C3(C)C [DOCETAXEL ANHYDROUS]",
    "experimentalTarget": "DU-145",
    "group": "MET"
  },
  {
    "compound": "COc1ccc(COC[C@H]2C/C(C)=C/COCC/C=C/C(=O)C/C(C)=C\\C=C\\C(=O)O2)cc1",
    "experimentalTarget": "DU-145",
    "group": "MET"
  }
]
